From: patent US20240417469A1

The following binders are shown together with reported CD3-NFAT Activity by CD3 mAb values.
biological target: human CD3 on cells (human PBMC; Jurkat TCR/CD3 NFAT reporter cells) (human, UniProt P07766 23-207; P04234 22-171; P09693 23-182); experiment: cell-based or functional assay
Sequence (P07766 23-207, chain 1 of 3): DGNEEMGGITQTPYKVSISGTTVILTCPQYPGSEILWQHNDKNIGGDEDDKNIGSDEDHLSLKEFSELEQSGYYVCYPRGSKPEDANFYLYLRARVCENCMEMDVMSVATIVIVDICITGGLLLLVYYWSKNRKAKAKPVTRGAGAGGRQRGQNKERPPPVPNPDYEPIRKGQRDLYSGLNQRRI
Sequence (P04234 22-171, chain 2 of 3): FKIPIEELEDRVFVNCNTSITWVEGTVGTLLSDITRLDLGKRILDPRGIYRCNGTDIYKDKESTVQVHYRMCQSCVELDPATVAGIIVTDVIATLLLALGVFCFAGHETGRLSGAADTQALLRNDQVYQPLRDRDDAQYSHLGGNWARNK
Sequence (P09693 23-182, chain 3 of 3): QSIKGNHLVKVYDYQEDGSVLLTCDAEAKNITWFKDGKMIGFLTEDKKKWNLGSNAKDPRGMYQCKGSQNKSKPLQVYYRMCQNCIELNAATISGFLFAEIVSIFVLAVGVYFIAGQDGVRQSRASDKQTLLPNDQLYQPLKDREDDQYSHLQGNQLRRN
outcome measure: CD3-NFAT Activity by CD3 mAb

| binder | assay result |
| --- | --- |
| Hu192A7B9-21 (antibody, V domains shown, humanized mAb) VH: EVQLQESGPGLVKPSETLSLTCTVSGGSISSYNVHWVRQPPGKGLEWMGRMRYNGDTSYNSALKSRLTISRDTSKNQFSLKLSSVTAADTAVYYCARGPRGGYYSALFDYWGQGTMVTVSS VL: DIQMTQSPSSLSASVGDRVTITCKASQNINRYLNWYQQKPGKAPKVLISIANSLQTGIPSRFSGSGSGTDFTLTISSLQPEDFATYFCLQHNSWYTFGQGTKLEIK | > 50 % SP34 |
| Hu192A7B9-1 (antibody, V domains shown, humanized mAb) VH: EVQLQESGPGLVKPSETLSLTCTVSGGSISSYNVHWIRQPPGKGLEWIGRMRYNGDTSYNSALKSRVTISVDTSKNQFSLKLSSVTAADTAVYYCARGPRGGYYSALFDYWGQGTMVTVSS VL: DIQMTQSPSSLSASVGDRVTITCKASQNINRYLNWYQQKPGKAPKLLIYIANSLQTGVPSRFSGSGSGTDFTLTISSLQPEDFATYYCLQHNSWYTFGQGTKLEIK | ≤ 50 % SP34 |
| Hu192A7B9-24 (antibody, V domains shown, humanized mAb) VH: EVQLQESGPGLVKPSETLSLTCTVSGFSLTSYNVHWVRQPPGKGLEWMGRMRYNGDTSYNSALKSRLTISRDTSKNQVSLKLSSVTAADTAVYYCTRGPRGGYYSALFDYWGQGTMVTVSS VL: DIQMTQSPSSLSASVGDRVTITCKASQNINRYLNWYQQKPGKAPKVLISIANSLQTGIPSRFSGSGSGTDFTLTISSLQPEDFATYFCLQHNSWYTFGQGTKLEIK | > 50 % SP34 |
